These measurements were taken from patent US20120202801A1.

tested on: soluble VEGF121 and VEGF165 isoforms; assay: ELISA of soluble VEGF production in multiple human tumor cell lines (EC50); format: cell-based; conditions: Neuroblastoma, SY5Y, hypoxic (1% oxygen), 48 hours, read-out: VEGF Inhibition Approximate EC50
pEC50: −log10 of the molar value.
measured_attribute: pEC50

                                   molecule                       target_of_assay  result
0  COc1ccc([C@H]2c3[nH]c4ccc(Cl)cc4c3CCN2C(=O)Oc2ccc(Cl)cc2)cc1 (racemic) [Compound #10]  soluble VEGF121 and VEGF165 isoforms   ~8.30

====

system: hypoxia-inducible endogenous VEGF expression; experiment: Hypoxia-inducible endogenous VEGF expression ELISA in HeLa cells, dose-response (EC50, Table 3); settings: Homo sapiens, read-out: ELISA EC50 μM
# EC50 per record follows
measured_attribute: EC50

>>> print(df.to_string())
                                    molecule                           target_of_assay  measured_attribute            result
 0  COCCCNCCCCOc1ccc(C2c3[nH]c4ccc(Cl)cc4c3CCN2C(=O)Oc2ccc(F)cc2)cc1 (centres unmarked)  hypoxia-inducible endogenous VEGF expression                EC50  0.008 to 0.04 µM
 1  O=C(Oc1ccc(F)cc1)N1CCc2c([nH]c3ccc(Cl)cc23)C1c1ccc(OCCCCN2CCCC2)cc1 (centres unmarked)  hypoxia-inducible endogenous VEGF expression                EC50        < 0.008 µM
 2  O=C(Oc1ccc(Cl)cc1)N1CCc2c([nH]c3ccc(Cl)cc23)C1c1ccc(OCC(O)CN2CCOCC2)cc1 (centres unmarked)  hypoxia-inducible endogenous VEGF expression                EC50        < 0.008 µM
 3  O=C(Oc1ccc(Cl)cc1)N1CCc2c([nH]c3ccc(Cl)cc23)C1c1ccc(OCCN2CCOCC2)cc1 (centres unmarked)  hypoxia-inducible endogenous VEGF expression                EC50            > 1 µM
 4  CC(C)NCC(O)COc1ccc(C2c3[nH]c4ccc(Cl)cc4c3CCN2C(=O)Oc2ccc(Cl)cc2)cc1 (centres unmarked)  hypoxia-inducible endogenous VEGF expression                EC50    0.04 to 0.2 µM
 5  O=C(Oc1ccc(Cl)cc1)N1CCc2c([nH]c3ccc(Cl)cc23)C1c1ccc(OCCCCCCNCCCn2ccnc2)cc1 (centres unmarked)  hypoxia-inducible endogenous VEGF expression                EC50    0.04 to 0.2 µM
 6  O=C(Oc1ccc(F)cc1)N1CCc2c([nH]c3ccc(Cl)cc23)C1c1ccc(OCCCCCCN2CCOCC2)cc1 (centres unmarked)  hypoxia-inducible endogenous VEGF expression                EC50        < 0.008 µM
 7  CN1CCN(CC(O)COc2ccc(C3c4[nH]c5ccc(Cl)cc5c4CCN3C(=O)Oc3ccc(F)cc3)cc2)CC1 (centres unmarked)  hypoxia-inducible endogenous VEGF expression                EC50  0.008 to 0.04 µM
 8  CCN(CC)CC(O)COc1ccc(C2c3[nH]c4ccc(Cl)cc4c3CCN2C(=O)Oc2ccc(Cl)cc2)cc1 (centres unmarked)  hypoxia-inducible endogenous VEGF expression                EC50        < 0.008 µM
 9  O=C(Oc1ccc(Cl)cc1)N1CCc2c([nH]c3ccc(Cl)cc23)C1c1ccc(OCCCCCCN2CCCCC2)cc1 (centres unmarked)  hypoxia-inducible endogenous VEGF expression                EC50        < 0.008 µM
10  O=C(Oc1ccc(Cl)cc1)N1CCc2c([nH]c3ccc(Cl)cc23)C1c1ccc(OCCCN2CCOCC2)cc1 (centres unmarked)  hypoxia-inducible endogenous VEGF expression                EC50        < 0.008 µM
11  CN(C)CCCOc1ccc(C2c3[nH]c4ccc(Cl)cc4c3CCN2C(=O)Oc2ccc(Br)cc2)cc1 (centres unmarked)  hypoxia-inducible endogenous VEGF expression                EC50  0.008 to 0.04 µM
12  NCC(O)COc1ccc(C2c3[nH]c4ccc(Cl)cc4c3CCN2C(=O)Oc2ccc(Cl)cc2)cc1 (centres unmarked)  hypoxia-inducible endogenous VEGF expression                EC50    0.04 to 0.2 µM
13  CC(=O)N1CCN(CC(O)COc2ccc(C3c4[nH]c5ccc(Cl)cc5c4CCN3C(=O)Oc3ccc(Cl)cc3)cc2)CC1 (centres unmarked)  hypoxia-inducible endogenous VEGF expression                EC50        < 0.008 µM
